Ref: ChEMBL document CHEMBL4311955

In this section we review reported Ki values for a set of compounds.
biological target: Protease (Human immunodeficiency virus 1, UniProt Q9YQ12, A71V/I50V); test: Inhibition of HIV1 NL4-3 protease I50V/A71V mutant expressed in Escherichia coli TAP-106 cells using EDANS/DABCYL-labelled 10-amino acid containing natural MA/CA cleavage site as substrate preincubated for 1 hr followed by substrate addition and measured for 60 mins by FRET assay
Sequence (Q9YQ12 entry or part of it A71V/I50V): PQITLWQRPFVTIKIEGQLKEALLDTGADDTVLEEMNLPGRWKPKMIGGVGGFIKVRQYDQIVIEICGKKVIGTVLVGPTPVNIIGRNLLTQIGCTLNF
Field format: number, assumed nM, no unit text.

| Structure notation | Recorded measurement |
| --- | --- |
| CCC(CC)CN(C[C@@H](O)[C@H](Cc1ccccc1)NC(=O)O[C@H]1CO[C@H]2OCC[C@H]21)S(=O)(=O)c1ccc([C@@H](O)CO)cc1 | 0.074 |
| CC[C@H](C)CN(C[C@@H](O)[C@H](Cc1ccccc1)NC(=O)O[C@H]1CO[C@H]2OCC[C@H]21)S(=O)(=O)c1ccc([C@@H](C)O)cc1 | 0.132 |
| CCC(CC)CN(C[C@@H](O)[C@H](Cc1ccccc1)NC(=O)O[C@H]1CO[C@H]2OCC[C@H]21)S(=O)(=O)c1ccc(CO)cc1 | 0.055 |

Now for a further compound.
[Q] Form field - read-out: Ki; system: Protease (Human immunodeficiency virus 1, UniProt Q9YQ12, A71V/I50V); submitted item: `CC(C)CN(C[C@@H](O)[C@H](Cc1ccccc1)NC(=O)O[C@H]1CO[C@H]2OCC[C@H]21)S(=O)(=O)c1ccc([C@@H](O)CO)cc1`
[A] 0.09

====

test system: Human immunodeficiency virus 1; test: Antiviral activity against multidrug-resistant HIV1 NL4-3 SLK19 infected in human TZM-bl cells preincubated for 18 hrs followed by viral infection and measured after 48 hrs by luciferase reporter gene assay; type: functional, organism-based; settings: Human immunodeficiency virus 1, NL4-3 SLK19, TZM-bl
Friendly reminder: EC50 below 40 nM is MET, at or above is NOT MET.

Completed entries (count: 8):
| Structure notation | Class name |
| --- | --- |
| CCC(CC)CN(C[C@@H](O)[C@H](Cc1ccccc1)NC(=O)O[C@H]1CO[C@H]2OCC[C@H]21)S(=O)(=O)c1ccc([C@@H](C)O)cc1 | MET |
| CC[C@H](C)CN(C[C@@H](O)[C@H](Cc1ccccc1)NC(=O)O[C@H]1CO[C@H]2OCC[C@H]21)S(=O)(=O)c1ccc([C@@H](C)O)cc1 | NOT MET |
| CCC(CC)CN(C[C@@H](O)[C@H](Cc1ccccc1)NC(=O)O[C@H]1CO[C@H]2OCC[C@H]21)S(=O)(=O)c1ccc([C@H](O)CO)cc1 | NOT MET |
| CC(C)CN(C[C@@H](O)[C@H](Cc1ccccc1)NC(=O)O[C@H]1CO[C@H]2OCC[C@H]21)S(=O)(=O)c1ccc([C@@H](C)O)cc1 | NOT MET |
| CCC(CC)CN(C[C@@H](O)[C@H](Cc1ccccc1)NC(=O)O[C@H]1CO[C@H]2OCC[C@H]21)S(=O)(=O)c1ccc([C@H](C)O)cc1 | MET |
| CCC(CC)CN(C[C@@H](O)[C@H](Cc1ccccc1)NC(=O)O[C@H]1CO[C@H]2OCC[C@H]21)S(=O)(=O)c1ccc([C@@H](O)CO)cc1 | NOT MET |
| CCC(CC)CN(C[C@@H](O)[C@H](Cc1ccccc1)NC(=O)O[C@H]1CO[C@H]2OCC[C@H]21)S(=O)(=O)c1ccc(CO)cc1 | MET |
| CC[C@H](C)CN(C[C@@H](O)[C@H](Cc1ccccc1)NC(=O)O[C@H]1CO[C@H]2OCC[C@H]21)S(=O)(=O)c1ccc([C@H](C)O)cc1 | NOT MET |

[Q] Determine whether this compound shows EC50 lower than 40 nM (ties excluded): `CC[C@H](C)CN(C[C@@H](O)[C@H](Cc1ccccc1)NC(=O)O[C@H]1CO[C@H]2OCC[C@H]21)S(=O)(=O)c1ccc(CO)cc1`
[A] NOT MET

[Q] Determine whether this compound shows EC50 lower than 40 nM (ties excluded): `CC(C)CN(C[C@@H](O)[C@H](Cc1ccccc1)NC(=O)O[C@H]1CO[C@H]2OCC[C@H]21)S(=O)(=O)c1ccc([C@H](C)O)cc1`
[A] MET

====

biological target: Protease (Human immunodeficiency virus 1, UniProt Q9YQ12, I84V); experiment: Inhibition of HIV1 NL4-3 protease I84V mutant expressed in Escherichia coli TAP-106 cells using EDANS/DABCYL-labelled 10-amino acid containing natural MA/CA cleavage site as substrate preincubated for 1 hr followed by substrate addition and measured for 60 mins by FRET assay
Sequence (Q9YQ12 entry or part of it I84V): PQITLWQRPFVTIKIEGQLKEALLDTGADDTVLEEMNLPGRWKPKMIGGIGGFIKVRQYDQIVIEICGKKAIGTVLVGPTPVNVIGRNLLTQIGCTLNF
In this section we review reported log10 of Ki values for a set of molecules.
Recall that a logarithmic scale is used here: each number is log10 of Ki in nM.

| Structure notation | Target of assay | log10 of Ki |
| --- | --- | --- |
| CC[C@H](C)CN(C[C@@H](O)[C@H](Cc1ccccc1)NC(=O)O[C@H]1CO[C@H]2OCC[C@H]21)S(=O)(=O)c1ccc(CO)cc1 | Protease (Human immunodeficiency virus 1, UniProt Q9YQ12, I84V) | -2.00 |
| CC(C)CN(C[C@@H](O)[C@H](Cc1ccccc1)NC(=O)O[C@H]1CO[C@H]2OCC[C@H]21)S(=O)(=O)c1ccc([C@H](O)CO)cc1 | Protease (Human immunodeficiency virus 1, UniProt Q9YQ12, I84V) | -0.55 |
| CCC(CC)CN(C[C@@H](O)[C@H](Cc1ccccc1)NC(=O)O[C@H]1CO[C@H]2OCC[C@H]21)S(=O)(=O)c1ccc([C@@H](O)CO)cc1 | Protease (Human immunodeficiency virus 1, UniProt Q9YQ12, I84V) | -1.24 |
| CC[C@H](C)CN(C[C@@H](O)[C@H](Cc1ccccc1)NC(=O)O[C@H]1CO[C@H]2OCC[C@H]21)S(=O)(=O)c1ccc([C@H](C)O)cc1 | Protease (Human immunodeficiency virus 1, UniProt Q9YQ12, I84V) | -0.95 |

[Q] Consider the molecule `CC[C@H](C)CN(C[C@@H](O)[C@H](Cc1ccccc1)NC(=O)O[C@H]1CO[C@H]2OCC[C@H]21)S(=O)(=O)c1ccc([C@@H](C)O)cc1` and give its measured log10 of Ki.
[A] -1.02

[Q] Consider the molecule `CC[C@H](C)CN(C[C@@H](O)[C@H](Cc1ccccc1)NC(=O)O[C@H]1CO[C@H]2OCC[C@H]21)S(=O)(=O)c1ccc([C@@H](O)CO)cc1` and give its measured log10 of Ki.
[A] -0.67

[Q] Consider the molecule `CC(C)CN(C[C@@H](O)[C@H](Cc1ccccc1)NC(=O)O[C@H]1CO[C@H]2OCC[C@H]21)S(=O)(=O)c1ccc([C@@H](O)CO)cc1` and give its measured log10 of Ki.
[A] -1.01

[Q] Consider the molecule `CCC(CC)CN(C[C@@H](O)[C@H](Cc1ccccc1)NC(=O)O[C@H]1CO[C@H]2OCC[C@H]21)S(=O)(=O)c1ccc([C@H](O)CO)cc1` and give its measured log10 of Ki.
[A] -0.87

[Q] Consider the molecule `CCC(CC)CN(C[C@@H](O)[C@H](Cc1ccccc1)NC(=O)O[C@H]1CO[C@H]2OCC[C@H]21)S(=O)(=O)c1ccc(CO)cc1` and give its measured log10 of Ki.
[A] -2.30

[Q] Consider the molecule `CC[C@H](C)CN(C[C@@H](O)[C@H](Cc1ccccc1)NC(=O)O[C@H]1CO[C@H]2OCC[C@H]21)S(=O)(=O)c1ccc([C@H](O)CO)cc1` and give its measured log10 of Ki.
[A] -0.30

====

target: Protease (Human immunodeficiency virus 1, UniProt Q9YQ12, A71V/I50V); assay: Inhibition of HIV1 NL4-3 protease I50V/A71V mutant expressed in Escherichia coli TAP-106 cells using EDANS/DABCYL-labelled 10-amino acid containing natural MA/CA cleavage site as substrate preincubated for 1 hr followed by substrate addition and measured for 60 mins by FRET assay
In this section we review reported Ki values for a set of molecules.
Field format: number, assumed nM, no unit text.

| Structure notation | Endpoint label | Recorded measurement |
| --- | --- | --- |
| CC[C@H](C)CN(C[C@@H](O)[C@H](Cc1ccccc1)NC(=O)O[C@H]1CO[C@H]2OCC[C@H]21)S(=O)(=O)c1ccc([C@H](C)O)cc1 | Ki | 0.093 |
| CC[C@H](C)CN(C[C@@H](O)[C@H](Cc1ccccc1)NC(=O)O[C@H]1CO[C@H]2OCC[C@H]21)S(=O)(=O)c1ccc(CO)cc1 | Ki | 0.08 |

Now for a further molecule.
[Q] Consider the molecule `CCC(CC)CN(C[C@@H](O)[C@H](Cc1ccccc1)NC(=O)O[C@H]1CO[C@H]2OCC[C@H]21)S(=O)(=O)c1ccc([C@H](O)CO)cc1` and give its measured Ki.
[A] 0.22
